- measured target: S. aureus TrmD (Staphylococcus aureus, UniProt Q2FZ43)
- Construct: made in house; host or cells: E. coli BL21
- Sequence (Q2FZ43 whole entry): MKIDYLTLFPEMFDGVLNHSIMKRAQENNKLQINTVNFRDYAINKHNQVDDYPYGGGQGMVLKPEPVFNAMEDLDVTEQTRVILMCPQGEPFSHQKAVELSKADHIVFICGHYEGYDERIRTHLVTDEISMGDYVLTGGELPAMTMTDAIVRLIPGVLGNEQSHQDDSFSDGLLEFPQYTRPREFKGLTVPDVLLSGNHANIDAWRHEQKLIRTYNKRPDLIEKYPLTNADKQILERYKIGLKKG
- protocol: Fluorescence polarization (FP) assay, tracer 4, S. aureus TrmD
- Type: binding
- run parameters: crude nanomole-scale reaction mixture; read-out: KD(in situ) S. aureus TrmD (FP displacement assay)
measured parameter: Kd (µM)
Write the number in µM without appending the unit.

Qu. Given CC(=O)NCCCn1cc(-c2c[nH]c3nc[nH]c(=O)c23)nn1 , state its recorded Kd.
Ans. 4.98

---

- measured target: S. aureus TrmD (Staphylococcus aureus)
- Construct: made in house; host or cells: E. coli BL21
- protocol: nanoSAR direct-to-biology FP displacement screening of crude triazoles
- Format: binding
- run parameters: crude triazole at 1 μM, assuming full conversion; 500 nM TrmD, 10 nM tracer 4; read-out: % displaced tracer
inhibition at 1 µM below 50% gives n; inhibition at 1 µM at or above it gives y.

>  <cpd smiles>
COC(=O)Cn1cc(-c2c[nH]c3nc[nH]c(=O)c23)nn1

>  <qualitative label>
n

$$$$
>  <cpd smiles>
O=c1[nH]cnc2[nH]cc(-c3cn(Cc4cc(C(F)(F)F)on4)nn3)c12

>  <qualitative label>
n

$$$$
>  <cpd smiles>
O=c1[nH]cnc2[nH]cc(-c3cn(-c4cc(F)ccc4F)nn3)c12

>  <qualitative label>
n

$$$$
>  <cpd smiles>
CCNCCn1cc(-c2c[nH]c3nc[nH]c(=O)c23)nn1

>  <qualitative label>
y

$$$$

Qu. Determine whether measured inhibition at 1 µM meets or exceeds 50% for COC(=O)c1ccc(Cn2cc(-c3c[nH]c4nc[nH]c(=O)c34)nn2)o1
Ans. n

Qu. Given O=c1[nH]cnc2[nH]cc(-c3cn(CCCN4CCSCC4)nn3)c12 , state whether its inhibition at 1 µM is at least 50%.
Ans. y

---

- measured target: H. influenzae TrmD (Haemophilus influenzae, UniProt P43912)
- Construct: host or cells: E. coli BL21
- Sequence (P43912 whole entry): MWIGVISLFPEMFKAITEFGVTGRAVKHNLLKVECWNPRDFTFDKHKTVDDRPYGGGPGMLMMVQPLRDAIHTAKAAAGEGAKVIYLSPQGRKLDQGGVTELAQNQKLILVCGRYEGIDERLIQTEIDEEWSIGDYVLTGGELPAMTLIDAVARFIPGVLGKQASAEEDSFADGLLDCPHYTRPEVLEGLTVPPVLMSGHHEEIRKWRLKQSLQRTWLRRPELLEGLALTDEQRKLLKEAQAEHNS
- protocol: Fluorescence polarization (FP) assay, tracer 3 (Cy5TPD), H. influenzae TrmD
- Format: binding
- run parameters: KD H. influenzae TrmD (FP)
measured parameter: Kd

Qu. Fill in the blank: the reported Kd of NC(N)=NCCn1cc(-c2c[nH]c3nc[nH]c(=O)c23)nn1 is ____.
Ans. > 30 µM

---

The entries below come with measured pKd values attached.
- measured target: S. aureus TrmD (Staphylococcus aureus, UniProt Q2FZ43)
- Construct: made in house; host or cells: E. coli BL21
- protocol: Fluorescence polarization (FP) assay, tracer 4, S. aureus TrmD
- Format: binding
- run parameters: KD S. aureus TrmD (FP displacement assay), apparent affinity, purified compound, 500 nM TrmD, 10 nM tracer 4
Just so you know, pKd here is -log10 of the concentration in molar units; reply with that number alone.

Consider the following illustrative entries.
>  <compound>
NCc1ccc(CNC(=O)c2csc3nc[nH]c(=O)c23)cc1 [Compound 2]

>  <measured result>
4.86

$$$$
>  <compound>
NC(N)=NCCn1cc(-c2c[nH]c3nc[nH]c(=O)c23)nn1 [Compound 8h]

>  <measured result>
5.61

$$$$

We now examine a further compound.
Qu. Given the entry Oc1ncnc2scc(-c3ccccc3)c12 [Compound 1, O=C1NC=NC2=C1C(C3=CC=CC=C3)=CS2] , report its measured pKd.
Ans. 4.54
